target: HIV Env of isolate 6540.v4.c1 (clade AC) (HIV); assay: cell-based or functional assay
Provide the reported IC50 (µg/ml) with constrains of each item.
Give bare numbers, in µg/mL.

Here's what some known entries look like.
binder: ePGDM5 (antibody, V domains shown) VH: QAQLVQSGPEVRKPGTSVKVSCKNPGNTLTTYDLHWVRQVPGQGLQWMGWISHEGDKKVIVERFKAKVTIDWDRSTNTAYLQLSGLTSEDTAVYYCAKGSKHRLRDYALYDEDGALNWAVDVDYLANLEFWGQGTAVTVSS VL: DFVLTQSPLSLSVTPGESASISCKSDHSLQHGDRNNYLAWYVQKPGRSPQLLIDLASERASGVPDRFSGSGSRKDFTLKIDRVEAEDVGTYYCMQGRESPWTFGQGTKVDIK
unit-text: µg/mL
IC50 (µg/ml) with constrains: 0.012
//
binder: ePGDM9 (antibody, V domains shown) VH: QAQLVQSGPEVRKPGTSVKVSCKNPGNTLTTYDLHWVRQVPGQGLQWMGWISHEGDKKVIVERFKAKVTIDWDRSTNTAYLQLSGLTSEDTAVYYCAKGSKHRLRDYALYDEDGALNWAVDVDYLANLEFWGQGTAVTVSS VL: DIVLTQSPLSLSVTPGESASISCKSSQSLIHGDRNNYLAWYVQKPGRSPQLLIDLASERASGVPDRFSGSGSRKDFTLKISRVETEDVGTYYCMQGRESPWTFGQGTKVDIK
unit-text: µg/mL
IC50 (µg/ml) with constrains: 0.008
//
binder: ePGDM13 (antibody, V domains shown) VH: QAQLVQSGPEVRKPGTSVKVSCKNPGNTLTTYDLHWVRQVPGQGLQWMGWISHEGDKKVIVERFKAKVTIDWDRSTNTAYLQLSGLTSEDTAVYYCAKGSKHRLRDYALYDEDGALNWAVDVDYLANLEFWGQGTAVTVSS VL: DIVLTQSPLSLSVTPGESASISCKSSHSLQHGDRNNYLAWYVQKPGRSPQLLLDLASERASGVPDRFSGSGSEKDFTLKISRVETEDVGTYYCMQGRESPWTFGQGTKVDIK
unit-text: µg/mL
IC50 (µg/ml) with constrains: 0.015

# input for lookup
Qu. Tell me the measured IC50 (µg/ml) with constrains of PGDM1400 (antibody, V domains shown) VH: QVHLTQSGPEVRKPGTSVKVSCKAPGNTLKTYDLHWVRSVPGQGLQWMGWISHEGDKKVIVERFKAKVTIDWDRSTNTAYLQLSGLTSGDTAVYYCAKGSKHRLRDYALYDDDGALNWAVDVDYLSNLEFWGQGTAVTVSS VL: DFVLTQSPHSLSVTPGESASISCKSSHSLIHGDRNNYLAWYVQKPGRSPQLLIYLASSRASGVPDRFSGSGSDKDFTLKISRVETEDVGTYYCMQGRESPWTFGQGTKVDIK , please.
Ans. 0.007

// provenance: patent US20230134571A1
